measured_on: CAR-3
experiment_summary: flow cytometry; clonal supernatant on control CAR-3 T cells, FITC goat anti-rabbit F(ab')2 detection
In this section, each of the binders is paired with its reported CAR+ (gate frequency).
Please give only the number in your answer, with no unit.

Clone 80-7 (antibody, V domains shown) VH: QEQLEESGGDLVKPEGSLTLTCTASGFSFSSAYWICWVRQVPGKGLEWIACIYTGSGGRSHYASWAKGRFTISKTSSTTVTLQMTSLTAADTATYFCARDPYILSAGPDNVLWGPGTLVTVSS VL: ALVMTQTPSPVSAAVGGTVTINCQASQSIGSDLGWFQQKPGQPPKLLIYWASTLASGVPSRFEGSGSGTQFTLTISDLECDDAATYYCAGYESLSNDGNAFGGGTEVVVK
0.067
Clone 137-2 (antibody, V domains shown) VH: QEQLVESGGGLVQPEGSLTLTCTASGFSFSLSNWICWVRQAPGKGLEWVACIYVSVSGNTRYASWAKGRFTISETSSTTVTLQMTGLTAADTATYFCARDPFSLVSVDRSLWGPGTLVTVSS VL: ALVMTQTPSPVSAAVGGTVTINCQASQSIGSDLSWFQQKPGQPPKLLMYWASSLASGVPSRFKGSGSGTQFTLTISDLECDDAATYYCAGYVNYNNDDAAFGGGTEVVVK
0.093

Below: the item to evaluate.
Ask | Provide CAR+ (gate frequency) value for the following binder: Clone 154-7 (antibody, V domains shown) VH: QSLEESGGDLVKPEGSLTLTCTASGFSFSSSYWICWVRQAPGKGLEWIACIYTANSGRTVYASWAKGRFTISKTSSTTVTLQLPSLTAADTATYFCARDIYVLTTTDNLWGPGTLVTVSS VL: ALVMTQAPSPVSAAVGGTVTISCQASQPIGSDLVWYQQKPGQPPKLLIYYASDLASGVPSRFKGSGSGTRFTLTISGVECDDAATYYCAGYKNYDHDDCGFGGGTEVVVK
Reply | 0.15
